percent of parent values by entry
B1: unnamed (parent)
chain 1: PHLSRQPEQPEQRALGPVSMPNLVPEVIDLTCHEAGFPPSDDEDEEG
chain 2: MPQPIEKVSVSTQTKKLSASSPRMLHRSTQTTNDGVCQSMCHDKYTKIFNDFKDRMKSDHKRETERVVREALEKLRSEMEEEKRQAVNKAVANMQGEMDRKCKQVKEKCKEEFVEEIKKLATQHKQLISQTKKKQWCYNCEEEAMYHCCWNTSYCSIKCQQEHWHAEHKRTCRRKR

Variants of: B1
testName: yeast two-hybrid (β-galactosidase activity)
settings: with partner chain of the complex shown; n = 3; parent: 100; read off a plot
Return type: number; implicit unit %.

# annotated cases, reported percent of parent shown
chain 1 PHLSRQPEQPEQRALGPVSMPNLVPEAIDLTCHEAGFPPSDDEDEEG [chain 1 V27A]; 130
chain 1 PHLSRQPEQPEQRALGPVSMPNLVAEVIDLTCHEAGFPPSDDEDEEG [chain 1 P25A]; 180
chain 1 PHLSRQPEQPEQRALGPVSMPNLAPEVIDLTCHEAGFPPSDDEDEEG [chain 1 V24A]; 100
chain 1 PHLSRQPEQPEQRALGPVSMPNLVPEVADLTCHEAGFPPSDDEDEEG [chain 1 I28A]; 140
chain 1 PHLSRQPEQPEQRALGPVSAPNLVPEVIDLTCHEAGFPPSDDEDEEG [chain 1 M20A]; 160
chain 1 PHLSRQPEQPEQRALGPVSMPALVPEVIDLTCHEAGFPPSDDEDEEG [chain 1 N22A]; 100
chain 1 PHLSRQPEQPEQRALGPVAMPNLVPEVIDLTCHEAGFPPSDDEDEEG [chain 1 S19A]; 89

In: Reported percent of parent for chain 1 PHLSRQPEQPEQRALGPVSMPNLVPAVIDLTCHEAGFPPSDDEDEEG [chain 1 E26A] : what is it?
Out: 150

The reported numbers originate from paper PMC6315623.
